pKa values, listed per item
Conditions Used: basic group
The answer should be written as a number, with no unit following it.

Compound Structure String: c1ccc2c(c1)CCNC2
pKa: 9.48
--
Compound Structure String: C[Si](C)(C)CNC1CCCCC1
pKa: 11
--
Compound Structure String: CCc1ccccn1
pKa: 5.98
--
Compound Structure String: CNCc1ccccn1
pKa: 8.96

Query: pKa; subject: Nc1cccc2cn[nH]c12
3.05

====

Entries annotated with measured pKa
Conditions Used: acidic group
No unit in the answer, please; the number alone is enough.

Worked examples follow.
Compound Structure String: O=C(O)c1csc2ccccc12
pKa: 4.24
--
Compound Structure String: CCC1(c2ccccc2)C(=O)NC(=S)NC1=O
pKa: 6.3
--
Compound Structure String: Cn1c(=O)c2[nH]c([N+](=O)[O-])nc2n(C)c1=O
pKa: 3.58
--
Compound Structure String: CCOP(=O)(O)NS(=O)(=O)c1ccccc1
pKa: 1.8
--
Compound Structure String: N#Cc1cccc(S(N)(=O)=O)c1
pKa: 8.84
--
Compound Structure String: O=C(O)[c+]1cccccc1
pKa: 3.29
--
Compound Structure String: O=C(O)c1cc([N+](=O)[O-])ccc1CO
pKa: 3.14
--
Compound Structure String: C/C(O)=C/C(=O)[O-]
pKa: 13.2

Could you tell me which pKa is on file for CC#CC#CC(=O)O ?
1.94

CC=O , same question.
16.8

Now give it for COc1cccc2c1-c1c(O)cccc1-2 too.
9.15

Next record, please: Oc1ccc2ncccc2c1
8.82

Next entry: O=C([O-])[C@@H]1CC[C@@H](C(=O)O)[Se]1
4.35

Repeat for the following compound: COc1nc(C)cc(O)[nH+]1
1.6

====

// pKa lookup, one value per entry
Conditions Used: acidic group
Lab note: jot down the number only; don't add units.

Some compounds with known pKa results, for comparison:
Compound: S=CNCc1ccccc1
pKa: 12.3

Compound: C[n+]1cc(O)c2ccccc2c1
pKa: 4.93

Compound: CC(C#N)(Cc1ccccc1)C(=O)O (stereo not given)
pKa: 2.29

For the compound shown here, Cc1ncnc2c(O)cccc12 , give the reported pKa.
8.75

Next compound up: [NH3+][C@H]1CCC[C@@H](C(=O)O)C1
3.7

====

Conditions Used: basic group
The entries below are paired with their reported pKa.
// return just the number, without any unit appended

// known answers, use as guide
Compound: c1cnc2c(c1)ccc1ncccc12
pKa: 4
--
Compound: CCOC(=O)c1cnc2c([N+](=O)[O-])cccc2c1[O-]
pKa: 8.9
--
Compound: CSc1ccc2ncccc2c1
pKa: 4.75
--
Compound: c1ccc(-c2[nH]cc[nH+]2)nc1
pKa: 0.6
--
Compound: Cc1ccc(CNCCN)cc1
pKa: 9.41

Could you tell me which pKa is on file for NCc1ccc(C(=O)[O-])cc1 ?
9.64

Now consider c1ccc2c(c1)CNCCC[NH2+]Cc1ccccc1OCCCO2 and answer again.
7.89

Repeat for the following compound: Nc1cccc2c(O)cccc12
4.15

Input OCCC[C@H]1CC[C@@H]2CCCN12
11.2

Quick one: O=CN1CCNCC1
7.98

Now try Cc1ccccc1/C(=N/CCCN(C)C)c1ccccc1 .
9

// next record COc1ccc2c(c1)CCN2
6.1

Cool, now NNC(=O)c1cccc(N)c1
3.75

Now the same for NNC(=O)c1cc[nH+]cc1
1.67

Likewise for CCCCCCCCCCCCN(CC(C)O)CC(C)O (stereo not given) ?
7.8

Try Nc1nc(N)c2ccccc2n1 next.
8.12

Quick one: N=C(c1ccccc1)c1ccc(O)cc1
6.45

Queued: ClC1CC2CCN1CC2 (stereo not given)
6.98

Then this compound: O=C1Nc2cncnc2N/C1=C1/Nc2ncncc2NC1=O
1

Next record, please: CSc1ccc(N)cc1I
3.44

Can you check CCCCCCCCCCNCCC(=O)[O-] next?
10.6

Likewise for Nc1ncnc2c1ncn2C1CCCCC1 ?
4.19

Query COc1cccc(/N=C/N(C)C)c1 next
8.6

Proceed to Cn1c(=O)cnc2ccccc21
-1.15

// repeat for C[C@@H](CN)c1ccccc1 and report
9.94

What do you get for N#CCC(=O)NN ?
2.34

Next compound up: O=C([O-])[C@]12CNCC[C@H]1O2
9.14

Next compound: CCOC(=O)CCCc1ccccn1
5.32

Repeat with Nc1nnn[nH]1
1.81

Please do the same for Oc1ccccc1CN1CCCNCCCNCCC1 as well.
9.87

====

Conditions Used: basic group
Threshold check on pKa: at or above 5 gives 1, strictly below gives -1.

Compound Structure String: CN(C)/C=N/c1ccc(Cl)cc1
Category: 1
//
Compound Structure String: Brc1ccc(-c2cnc(-c3ccccc3)o2)cc1
Category: -1
//
Compound Structure String: CSc1nc(N)c2c(ncn2[C@H]2O[C@H](CO)[C@@H](O)[C@H]2O)n1
Category: -1
//
Compound Structure String: NCCNCc1ccccc1
Category: 1
//
Compound Structure String: N=C(Nc1ccccc1)Nc1nc(N)nc(N)n1
Category: 1
//
Compound Structure String: Cc1noc(C)c1C
Category: -1
//
Compound Structure String: CCCCN(CCCC)c1ccc([N+](=O)[O-])cc1
Category: -1
//
Compound Structure String: CC(C)(C)c1cc(O)[nH]n1
Category: -1
//
Compound Structure String: Cn1cncn1
Category: -1
//
Compound Structure String: NC(=O)CC(=O)c1cccnc1
Category: 1

pKa >= 5 for NCC(=O)C[NH3+] ?
1

Could you do the same for Cc1cc(-c2cc(C)n[nH]2)[nH]n1 , please?
-1

And for CCc1cccc(CN(C)C)c1O ?
1

====

Conditions Used: acidic group
# cutoff 9 applies to pKa; >= gives true (1), < gives false (0)

Study these solved cases before continuing.
Compound Structure String: CCN(CC)C(=S)NC(=O)c1ccc(Cl)cc1
Category: false (0)
//
Compound Structure String: C=C=CC(=O)O
Category: false (0)

API: above_or_equal(metric=pKa, cutoff=9) for item CC(=O)Nc1ccc(O)cc1
true (1)

Continue with CC(=S)Nc1ccc([N+](=O)[O-])cc1
true (1)

Would you kindly repeat that for Cn1c(=O)[nH]c2ncn(C)c2c1=O ?
false (0)

Now the same for Cc1ccc(S(=O)(=O)NCCC(N)=[NH2+])cc1
true (1)

Entry to check: CC(=O)c1ccc(O)cc1
false (0)

Follow-up item: NS(=O)(=O)C(F)(F)Br
false (0)

====

Conditions Used: acidic group
In this section, each of the compounds is paired with its reported pKa.
Number only, no unit.

Reference set (5 entries):
Compound Structure String: Oc1[nH+]cnc2ccccc12
pKa: 2.12
//
Compound Structure String: CC[NH+]1CCC[C@@H]1CNC(=O)c1c(OC)ccc(Cl)c1O
pKa: 7.07
//
Compound Structure String: Fc1ccc(S)cc1
pKa: 6.35
//
Compound Structure String: Oc1c(Br)cccc1Br
pKa: 6.6
//
Compound Structure String: CN(C)c1cccc(O)c1
pKa: 9.85

Can you share its pKa? I mean this compound: Cc1ccc(NN=C(C#N)C#N)cc1
6.75

Repeat for the following compound: O=C(O)[C@@H]1C[C@@H]1Br
4.09

One more compound: Oc1ccc(Cl)c(Cl)c1
8.58

====

Conditions Used: basic group
Could you label it Satisfied if measured pKa is 7 or higher, and Not satisfied otherwise?

Below, 5 compounds whose answers are already recorded.
Compound: CN(C)[C@H]1CCCC[C@@H]1O
Category: Satisfied

Compound: NC12CCC(CC1)C2
Category: Satisfied

Compound: Cn1cncc(-c2ccccc2)c1=O
Category: Not satisfied

Compound: Nc1cccc2cccc(N)c12
Category: Not satisfied

Compound: Cn1ccnc1-c1ccccn1
Category: Not satisfied

Decide: is the reported value of pKa for COc1cc(S(C)=O)ccc1-c1cn2ccncc2n1 (stereo not given) equal to or greater than 7?
Not satisfied

Please do the same for CC(C)(C)c1ccccc1N as well.
Not satisfied

Another compound to check: [O-]c1ccccc1C1=NCCN1
Satisfied

And Cc1n[nH]c(C)c1C ?
Not satisfied

Now this one: CN/C=[NH+]/c1cccc(-c2csc(N=C(N)N)n2)c1
Not satisfied

Entry to check: C[C@H](N)C(=O)[O-]
Satisfied

What do you have for c1c[nH]c(P(c2ncc[nH]2)c2ncc[nH]2)n1 ?
Satisfied

====

Conditions Used: acidic group
# Lookup of reported pKa keyed by entry
Enter a number only.

Compound: O=Cc1ccccc1C(=O)O
pKa: 4.56

Compound: O=C(O)c1ccsc1
pKa: 4.03

Request the reported pKa associated with CC(C)C[C@H](N)C(N)=O
7.84

Next: O=NCC(=O)c1cccnc1
7.8

Another compound: O=C1CCC(=O)N1
9.59

Entry to check: c1ccc2c(c1)ccc1nc[nH]c12
12.5

// query: O=C(O)Cc1ccsc1
4.07

And then CC(=O)c1cccc(NC(N)=S)c1 , what is it?
12.1
